Experimental target: T1, human CD33 Fc fusion protein (human, UniProt P20138 18-259)
T1 construct: also called hCD33-Fc; human CD33/Fc chimera (R&D Systems)
T1 sequence (P20138 18-259 limits assumed): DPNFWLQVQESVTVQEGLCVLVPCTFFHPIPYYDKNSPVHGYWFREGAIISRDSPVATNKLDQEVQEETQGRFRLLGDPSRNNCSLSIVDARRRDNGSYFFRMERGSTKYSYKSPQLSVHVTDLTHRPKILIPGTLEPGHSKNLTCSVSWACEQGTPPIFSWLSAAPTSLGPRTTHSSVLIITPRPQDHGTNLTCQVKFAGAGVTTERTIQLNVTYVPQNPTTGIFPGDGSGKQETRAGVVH
Experiment notes: RBC adhesion to plate-bound CD33-Fc; antibody 1.0 ug/ml;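 also: red blood cells adhering to plate-coated CD33-Fc after 1 h antibody pretreatment, then 1 h at room temperature, bound cells read as peroxidase activity after lysis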
Test readout: Percent RBC Binding to CD33 (%)
Give bare numbers, in %.

Consider the worked cases shown below.
C-65 (antibody, V domains shown, human IgG1) VH: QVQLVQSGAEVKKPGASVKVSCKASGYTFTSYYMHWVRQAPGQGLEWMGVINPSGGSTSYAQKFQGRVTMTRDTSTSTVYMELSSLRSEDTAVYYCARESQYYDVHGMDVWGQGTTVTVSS VL: DIQMTQSPSSLSASVGDRVTITCRASQSISSYLNWYQQKPGKAPKLLIYAASSLQSGVPSRFSGSGSGTDFTLTISSLQPEDFATYYCQQQYTLPPTFGGGTKVEIK	9.33
C-56 (antibody, V domains shown, human IgG1) VH: EVQLVESGGGLVQPGGSLRLSCAASGFTFSSYWMSWVRQAPGKGLEWVANIKQDGSEKYYVDSVKGRFTISRDNAKNSLYLQMNSLRAEDTAVYYCARDYGSVAGTPFDYWGQGTLVTVSS VL: DIQMTQSPSSLSASVGDRVTITCRASQSISSYLNWYQQKPGKAPKLLIYAASSLQSGVPSRFSGSGSGTDFTLTISSLQPEDFATYYCQQVLHTPLTFGGGTKVEIK	10.5
C-42 (antibody, V domains shown, human IgG1) VH: QLQLQESGPGLVKPSETLSLTCTVSGGSISSSSYYWGWIRQPPGKGLEWIGSIYYSGSTYYNPSLKSRVTISVDTSKNQFSLKLSSVTAADTAVYYCAREPIYRRGMDVWGQGTTVTVSS VL: EIVLTQSPATLSLSPGERATLSCRASQSVSSYLAWYQQKPGQAPRLLIYDASNRATGIPARFSGSGSGTDFTLTISSLEPEDFAVYYCQQFSNYPTFGGGTKVEIK	6.65

API: the following record is the query input.
Query: What value of Percent RBC Binding to CD33 has been recorded for this entry: C-11 (antibody, V domains shown, human IgG1) VH: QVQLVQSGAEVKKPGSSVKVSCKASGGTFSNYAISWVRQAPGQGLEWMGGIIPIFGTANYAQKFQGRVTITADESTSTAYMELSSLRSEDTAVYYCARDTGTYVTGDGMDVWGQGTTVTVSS VL: EIVMTQSPATLSVSPGERATLSCRASQSVSSNLAWYQQKPGQAPRLLIYSASTRATGIPARFSGSGSGTEFTLTISSLQSEDFAVYYCQQYIVLPITFGGGTKVEIK
Result: 7.6
